Value source: patent US11046672B2

Reported Cell viability at 100 nM (%) by item:
Test system: MRC5 cells
Test Protocol: Cell viability assay in MRC5 cells (MTT)
Measurement Setup: 100 nM
Respond numerically; units are % and should not be typed.

// worked examples, Cell viability at 100 nM (%) included
1) COC(=O)c1cc2c(cc1C)/C(=C(/Nc1ccc(C(=O)N(C)OCCN(C)CCO)cc1)c1ccccc1)C(=O)N2 [Example 56]; 132
2) COC(=O)c1ccc2c(c1)NC(=O)/C2=C(\Nc1ccc(C(=O)N(OC)C2CCN(C)CC2)cc1)c1ccccc1 [Example 21]; 95.5
3) COC(=O)c1ccc2c(c1)NC(=O)/C2=C(\Nc1ccc(C(=O)NOCCN2CCOCC2)c(C)c1)c1ccccc1 [Example 16]; 79
4) CCN1CCN(CCONC(=O)c2ccc(N/C(=C3\C(=O)Nc4cc(C(=O)OC)c(C)cc43)c3ccccc3)cc2)CC1 [Example 36]; 108.8
5) COC(=O)c1cc2c(cc1C)/C(=C(/Nc1ccc(C(=O)NOCCCN3CCCCC3)cc1)c1ccccc1)C(=O)N2 [Example 53]; 124.2

Request: Item COC(=O)c1cc2c(cc1C)/C(=C(/Nc1ccc(C(=O)NOCCN3CCN(CCO)CC3)cc1)c1ccccc1)C(=O)N2 [Example 7] : provide Cell viability at 100 nM (%)
Response: 90.7

Request: Provide one value: measured Cell viability at 100 nM (%) of COC(=O)c1ccc2c(c1)NC(=O)/C2=C(\Nc1ccc(C(=O)N(C)OC)cc1)c1ccccc1 [Example 1]
Response: 116.6

Request: Query Cell viability at 100 nM (%) for COC(=O)c1cc2c(cc1C)/C(=C(/Nc1ccc(C(=O)NOCCCN(C)C)c(C)c1)c1ccccc1)C(=O)N2 [Example 29]
Response: 92

Request: Write down Cell viability at 100 nM (%) measured for item COC(=O)c1ccc2c(c1)NC(=O)/C2=C(\Nc1ccc(C(=O)NOCCN2CCNC(=O)C2)cc1)c1ccccc1 [Example 42]
Response: 114.5

Request: Using the record for COC(=O)c1ccc2c(c1)NC(=O)/C2=C(\Nc1ccc(C(=O)NOCCN(C)C)c(F)c1)c1ccccc1 [Example 20] , state its measured Cell viability at 100 nM (%).
Response: 75.5

Request: Consider the molecule COC(=O)c1ccc2c(c1)NC(=O)/C2=C(\Nc1ccc(C(=O)NOCCN2CCS(=O)(=O)CC2)cc1)c1ccccc1 [Example 41] and give its recorded Cell viability at 100 nM (%).
Response: 112.3

Request: Give the reported value of Cell viability at 100 nM (%) for this record: COC(=O)c1cc2c(cc1C)/C(=C(/Nc1ccc(C(=O)NOC3CCN(C)CC3)cc1)c1ccccc1)C(=O)N2 [Example 30]
Response: 96.1

Request: Give the measured Cell viability at 100 nM (%) for COC(=O)c1cc2c(cc1C)/C(=C(/Nc1ccc(C(=O)N(C)OCCN3C4CCC3CNC4)cc1)c1ccccc1)C(=O)N2 [Example 60]
Response: 88.8

Request: Given COC(=O)c1ccc2c(c1)NC(=O)/C2=C(\Nc1ccc(C(=O)NOCCN2CCN(CCO)CC2)cc1)c1ccccc1 [Example 39] , respond with its Cell viability at 100 nM (%).
Response: 89.9
